Listed here are molecules together with their documented solubility at 2 h.
assay.info: Solubility of the compound in pH 1 0.1M HCl after 2 hrs by UV-HPLC analysis
Assay type: physicochemical
Where a SMILES comes first, the peptide text is derived from it. [ ]: non-standard residue; d: D form. The star is where a group is joined. Trt = c1ccc(C(c2ccccc2)(c2ccccc2)*)cc1; Sar = CNCC(=O)O; tBu = CC(C)(C)*
measurement.type: solubility at 2 h (µM)

C[C@@H](OC(C)(C)C)[C@@H]1NC(=O)CNC(=O)[C@H](CSC(c2ccccc2)(c2ccccc2)c2ccccc2)NC(=O)CNC(=O)[C@H](CSC(c2ccccc2)(c2ccccc2)c2ccccc2)NC(=O)CN(C)C1=O (cyclo(C(Trt)GC(Trt)GT(tBu)[Sar])) | 1.17
CN1CC(=O)N[C@@H](CSC(c2ccccc2)(c2ccccc2)c2ccccc2)C(=O)N[C@@H](Cc2ccccc2)C(=O)N[C@@H](COC(C)(C)C)C(=O)N(C)CC(=O)N[C@@H](CSC(c2ccccc2)(c2ccccc2)c2ccccc2)C1=O (cyclo(C(Trt)FS(tBu)[Sar]C(Trt)[Sar])) | 5.32

---

assay.info: Permeability of the compound in pH 7.4 phosphate buffered saline at 20 uM after 20 hrs by PAMPA
Type: ADME
measurement.setup: PAMPA, pH 7.4; read-out: permeability
Where a SMILES comes first, the peptide text is derived from it. [ ]: non-standard residue; d: D form. The star is where a group is joined. Trt = c1ccc(C(c2ccccc2)(c2ccccc2)*)cc1; Sar = CNCC(=O)O; tBu = CC(C)(C)*
Consider the following molecules and their measured Papp at 20 h, 20 µM readings.
measurement.type: Papp at 20 h, 20 µM (×10⁻⁶ cm/s)

CN1CC(=O)N[C@@H](CSC(c2ccccc2)(c2ccccc2)c2ccccc2)C(=O)N[C@@H](Cc2ccccc2)C(=O)N[C@@H](COC(C)(C)C)C(=O)N(C)CC(=O)N[C@@H](CSC(c2ccccc2)(c2ccccc2)c2ccccc2)C1=O (cyclo(C(Trt)FS(tBu)[Sar]C(Trt)[Sar])) | 0.2
C[C@@H](OC(C)(C)C)[C@@H]1NC(=O)CN(C)C(=O)[C@H](CSC(c2ccccc2)(c2ccccc2)c2ccccc2)NC(=O)CN(C)C(=O)[C@H](CSC(c2ccccc2)(c2ccccc2)c2ccccc2)NC(=O)CN(C)C1=O (cyclo(C(Trt)[Sar]C(Trt)[Sar]T(tBu)[Sar])) | 0.2
CN1CC(=O)N[C@@H](CSC(c2ccccc2)(c2ccccc2)c2ccccc2)C(=O)N(C)CC(=O)N[C@@H](CSC(c2ccccc2)(c2ccccc2)c2ccccc2)C(=O)N(C)CC(=O)N[C@@H](CCC(=O)O)C1=O (cyclo(C(Trt)[Sar]C(Trt)[Sar]E[Sar])) | 0.2
CN1CC(=O)N[C@@H](CSC(c2ccccc2)(c2ccccc2)c2ccccc2)C(=O)N(C)CC(=O)N[C@@H](CSC(c2ccccc2)(c2ccccc2)c2ccccc2)C(=O)N(C)CC(=O)N[C@@H](COC(C)(C)C)C1=O (cyclo(C(Trt)[Sar]C(Trt)[Sar]S(tBu)[Sar])) | 0.3
C[C@@H](OC(C)(C)C)[C@@H]1NC(=O)CN(C)C(=O)[C@H](CSC(c2ccccc2)(c2ccccc2)c2ccccc2)NC(=O)CNC(=O)[C@H](CSC(c2ccccc2)(c2ccccc2)c2ccccc2)NC(=O)CN(C)C1=O (cyclo(C(Trt)GC(Trt)[Sar]T(tBu)[Sar])) | 1

The measured values listed here are drawn from ChEMBL document CHEMBL4382296.
